Test system: HCT-15
Hi! Just check whether GI50 is below 10 µM. Below gives true, equal or above gives false.

molecule	class.name
Cn1ncc2ccc3[nH]c4ccccc4c(=O)c3c21	false
O=Cc1coc2ccccc2c1=O	false
O=C1C=C(OCCCl)C(=O)c2c(O)ccc(O)c21	true
CC(C)(Cl)C(Br)CC/C(=C/CCl)CBr.CC(C)(Cl)C(Br)CC/C(=C\CCl)CBr (configuration not stated)	true
O=c1cccc(Cl)[nH]1	false
CC(C)SC1SCC2C(=O)N(C)C3(CC3C)C(=O)OCC(NC(=O)c3nc4ccccc4cc3O)C(=O)NC(C)C(=O)N(C)C1C(=O)N(C)C1(CC1C)C(=O)OCC(NC(=O)c1nc3ccccc3cc1O)C(=O)NC(C)C(=O)N2C (configuration not stated)	true
O=C(O)CCCc1ccc2c(c1)CC1(C2)Cc2ccc(CCCC(=O)O)cc2C1	false
CC(=O)NNc1nc(C)c(C(=O)NNC(=O)C(=O)Nc2ccc(Cl)cc2Cl)s1	false
COC(=O)C1CC2CCC1(O[Si](C(C)C)(C(C)C)C(C)C)C(O)C2 (configuration not stated)	false
O=[N+]([O-])C(=C1Nc2ccccc2N1)C(Cl)=C(Cl)Cl	false
COc1cc(CO)cc2c1[nH]c1ccccc12	false
O=C(C(Cl)Cl)N(O)c1ccccc1OCc1ccccc1	false
Cc1cc(CN2CCCCC2)c(O)c(CN2CCCCC2)c1	false
CC#CCCCC1(C)CCCNC1=S (configuration not stated)	false
Nc1ccc(Oc2ccc(C3(c4ccc(Oc5ccc(N)c(O)c5)cc4)C4CC5C6CC7CC5C3C(C7)C6C4)cc2)cc1O	true
O=C(O)C(C1NCCS1)N1Cc2ccccc2C1 (configuration not stated)	false
CCOC(=O)c1cn(CC)c2ccc3c(c2c1=O)S(=O)(=O)C=C3	false
CCN(CC)CCO[Si](OCCN(CC)CC)(OCCN(CC)CC)OCCN(CC)CC	false
O=C1C2=Cc3ccccc3OC2(O)Oc2cc3ccccc3cc21 (configuration not stated)	false
O=C1OC(c2ccccc2)=N/C1=C/NC(Cc1ccccc1)C(=O)O (configuration not stated)	false
O=C(NNCc1ccccc1O)c1ccccc1O	true
O=C1OC(=O)C23CSCC12C1C=CC3O1 (configuration not stated)	false
